- test_system: T1, human pIgR, full-length, on cells (human, UniProt P01833 19-764)
- T1 construct: whole, on cells; Used for the flow cytometry EC50 values (MDCK-hpIgR) and for the transcytosis read-outs; also called hpIgR; cell-surface hpIgR
- T1 sequence (P01833 19-764): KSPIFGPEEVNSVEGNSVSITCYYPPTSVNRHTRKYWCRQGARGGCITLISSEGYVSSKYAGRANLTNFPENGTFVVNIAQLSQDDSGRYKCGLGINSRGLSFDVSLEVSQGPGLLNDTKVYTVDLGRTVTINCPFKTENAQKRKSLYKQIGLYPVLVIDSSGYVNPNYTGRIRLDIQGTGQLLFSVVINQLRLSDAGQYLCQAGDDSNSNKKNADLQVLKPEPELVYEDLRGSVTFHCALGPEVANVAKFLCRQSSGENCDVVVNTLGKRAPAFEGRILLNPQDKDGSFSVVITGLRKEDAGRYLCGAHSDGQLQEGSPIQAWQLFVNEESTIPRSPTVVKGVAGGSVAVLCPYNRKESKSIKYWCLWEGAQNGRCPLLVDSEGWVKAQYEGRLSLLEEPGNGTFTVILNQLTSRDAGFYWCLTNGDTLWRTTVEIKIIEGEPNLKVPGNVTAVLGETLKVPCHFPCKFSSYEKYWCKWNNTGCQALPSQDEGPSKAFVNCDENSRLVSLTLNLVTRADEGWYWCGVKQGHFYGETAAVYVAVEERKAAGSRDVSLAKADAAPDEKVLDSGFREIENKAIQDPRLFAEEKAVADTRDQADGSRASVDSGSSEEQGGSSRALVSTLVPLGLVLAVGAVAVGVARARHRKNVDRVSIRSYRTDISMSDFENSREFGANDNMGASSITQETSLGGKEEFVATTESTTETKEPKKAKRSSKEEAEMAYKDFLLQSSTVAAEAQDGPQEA
- test_description: flow cytometry on MDCK-hpIgR cells; summary table, repeats Table 1
Consider the following binders; for each one, report its EC50.
The reply should contain only the number, in nM.

Briefly, EC50 measured for VHH10-linker-mono-Fc protein (Fc fusion, made in CHO cells; also called VHH10-mono-Fc; hpIgR_225) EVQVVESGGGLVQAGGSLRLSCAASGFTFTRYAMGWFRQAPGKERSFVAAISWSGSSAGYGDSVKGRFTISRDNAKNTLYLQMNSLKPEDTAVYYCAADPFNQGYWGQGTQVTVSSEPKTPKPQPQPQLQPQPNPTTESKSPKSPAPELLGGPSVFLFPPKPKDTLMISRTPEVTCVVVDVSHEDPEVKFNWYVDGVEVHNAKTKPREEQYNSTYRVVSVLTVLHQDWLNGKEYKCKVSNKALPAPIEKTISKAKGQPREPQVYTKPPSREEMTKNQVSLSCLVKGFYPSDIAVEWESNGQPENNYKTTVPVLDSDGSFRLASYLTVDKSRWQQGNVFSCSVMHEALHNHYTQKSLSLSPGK : 20.4

Briefly, EC50 measured for VHH9-linker-mono-Fc protein (Fc fusion, made in CHO cells; also called VHH9-mono-Fc; hpIgR_221) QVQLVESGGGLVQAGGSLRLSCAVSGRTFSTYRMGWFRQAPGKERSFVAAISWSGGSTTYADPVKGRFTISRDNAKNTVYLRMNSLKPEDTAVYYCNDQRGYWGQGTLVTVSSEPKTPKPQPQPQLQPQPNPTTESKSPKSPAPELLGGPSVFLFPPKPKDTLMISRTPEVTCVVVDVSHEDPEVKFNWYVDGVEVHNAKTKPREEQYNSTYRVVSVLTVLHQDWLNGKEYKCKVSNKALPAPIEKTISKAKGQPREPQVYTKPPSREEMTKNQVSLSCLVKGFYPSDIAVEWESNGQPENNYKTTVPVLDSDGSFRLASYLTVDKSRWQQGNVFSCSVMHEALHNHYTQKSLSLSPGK : 1.5

Briefly, EC50 measured for VHH6-linker-mono-Fc protein (Fc fusion, made in CHO cells; also called VHH6-mono-Fc; hpIgR_181) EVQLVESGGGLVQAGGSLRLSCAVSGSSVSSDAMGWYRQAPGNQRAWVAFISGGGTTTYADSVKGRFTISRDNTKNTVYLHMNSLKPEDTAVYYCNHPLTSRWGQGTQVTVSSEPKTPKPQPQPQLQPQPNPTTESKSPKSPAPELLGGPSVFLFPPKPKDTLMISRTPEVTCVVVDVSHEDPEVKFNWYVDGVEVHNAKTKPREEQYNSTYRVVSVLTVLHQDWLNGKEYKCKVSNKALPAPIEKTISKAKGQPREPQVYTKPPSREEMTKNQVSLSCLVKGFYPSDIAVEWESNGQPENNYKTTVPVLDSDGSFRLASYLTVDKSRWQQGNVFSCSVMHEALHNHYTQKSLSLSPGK : 11.5

Source: patent US20220324970A1
